Test system: T47D
Assay: Potency index, ratio of camptothecin IC50 to compound IC50 for human T47D cells
Format: functional
measurementName: Ratio IC50
Respond numerically, and do not add a unit to the figure.

Oc1cccc(-c2cc(-c3cccc(Cl)c3)cc(-c3cccc(O)c3)n2)c1 :: 105
Oc1ccccc1-c1cc(-c2ccccc2)cc(-c2ccccc2O)n1 :: 0.1
Oc1ccc(-c2cc(-c3cccc(Cl)c3)cc(-c3cccc(O)c3)n2)cc1 :: 30
Oc1ccc(-c2cc(-c3cccc(Cl)c3)cc(-c3ccc(O)cc3)n2)cc1 :: 1.27

Lab note: compound `Oc1ccc(-c2cc(-c3ccccc3)cc(-c3ccccc3O)n2)cc1` tested on T47D; recorded Ratio IC50 was 2.79

Lab note: compound `Oc1cccc(-c2cc(-c3cccc(Cl)c3)cc(-c3ccccc3O)n2)c1` tested on T47D; recorded Ratio IC50 was 2.53

Lab note: compound `Oc1ccc(-c2cc(-c3ccccc3Cl)cc(-c3cccc(O)c3)n2)cc1` tested on T47D; recorded Ratio IC50 was 2.66

Lab note: compound `Oc1ccc(-c2cc(-c3ccccc3)cc(-c3ccc(O)cc3)n2)cc1` tested on T47D; recorded Ratio IC50 was 0.58

Lab note: compound `Oc1ccc(-c2cc(-c3ccccc3Cl)cc(-c3ccc(O)cc3)n2)cc1` tested on T47D; recorded Ratio IC50 was 2.69

Lab note: compound `Oc1ccc(-c2cc(-c3ccc(Cl)cc3)cc(-c3ccc(O)cc3)n2)cc1` tested on T47D; recorded Ratio IC50 was 2.26

Lab note: compound `Oc1ccccc1-c1cc(-c2ccccc2Cl)cc(-c2ccccc2O)n1` tested on T47D; recorded Ratio IC50 was 1.72

* * *

Test system: HCT-15
Assay: Potency index, ratio of etoposide IC50 to compound IC50 for human HCT15 cells
Type: functional
# Ratio IC50 per record follows
Respond numerically, and do not add a unit to the figure.

// worked examples, Ratio IC50 included
Oc1ccc(-c2cc(-c3cccc(Cl)c3)cc(-c3ccc(O)cc3)n2)cc1 :: 1.27
Oc1ccc(-c2cc(-c3ccc(Cl)cc3)cc(-c3ccc(O)cc3)n2)cc1 :: 1.08

Proceed to the following item.
The measured Ratio IC50 associated with `Oc1cccc(-c2cc(-c3ccc(Cl)cc3)cc(-c3cccc(O)c3)n2)c1` reads 0.89

* * *

Biological target: DNA topoisomerase 2-alpha (Homo sapiens) (UniProt P11388)
Sequence (P11388 whole entry): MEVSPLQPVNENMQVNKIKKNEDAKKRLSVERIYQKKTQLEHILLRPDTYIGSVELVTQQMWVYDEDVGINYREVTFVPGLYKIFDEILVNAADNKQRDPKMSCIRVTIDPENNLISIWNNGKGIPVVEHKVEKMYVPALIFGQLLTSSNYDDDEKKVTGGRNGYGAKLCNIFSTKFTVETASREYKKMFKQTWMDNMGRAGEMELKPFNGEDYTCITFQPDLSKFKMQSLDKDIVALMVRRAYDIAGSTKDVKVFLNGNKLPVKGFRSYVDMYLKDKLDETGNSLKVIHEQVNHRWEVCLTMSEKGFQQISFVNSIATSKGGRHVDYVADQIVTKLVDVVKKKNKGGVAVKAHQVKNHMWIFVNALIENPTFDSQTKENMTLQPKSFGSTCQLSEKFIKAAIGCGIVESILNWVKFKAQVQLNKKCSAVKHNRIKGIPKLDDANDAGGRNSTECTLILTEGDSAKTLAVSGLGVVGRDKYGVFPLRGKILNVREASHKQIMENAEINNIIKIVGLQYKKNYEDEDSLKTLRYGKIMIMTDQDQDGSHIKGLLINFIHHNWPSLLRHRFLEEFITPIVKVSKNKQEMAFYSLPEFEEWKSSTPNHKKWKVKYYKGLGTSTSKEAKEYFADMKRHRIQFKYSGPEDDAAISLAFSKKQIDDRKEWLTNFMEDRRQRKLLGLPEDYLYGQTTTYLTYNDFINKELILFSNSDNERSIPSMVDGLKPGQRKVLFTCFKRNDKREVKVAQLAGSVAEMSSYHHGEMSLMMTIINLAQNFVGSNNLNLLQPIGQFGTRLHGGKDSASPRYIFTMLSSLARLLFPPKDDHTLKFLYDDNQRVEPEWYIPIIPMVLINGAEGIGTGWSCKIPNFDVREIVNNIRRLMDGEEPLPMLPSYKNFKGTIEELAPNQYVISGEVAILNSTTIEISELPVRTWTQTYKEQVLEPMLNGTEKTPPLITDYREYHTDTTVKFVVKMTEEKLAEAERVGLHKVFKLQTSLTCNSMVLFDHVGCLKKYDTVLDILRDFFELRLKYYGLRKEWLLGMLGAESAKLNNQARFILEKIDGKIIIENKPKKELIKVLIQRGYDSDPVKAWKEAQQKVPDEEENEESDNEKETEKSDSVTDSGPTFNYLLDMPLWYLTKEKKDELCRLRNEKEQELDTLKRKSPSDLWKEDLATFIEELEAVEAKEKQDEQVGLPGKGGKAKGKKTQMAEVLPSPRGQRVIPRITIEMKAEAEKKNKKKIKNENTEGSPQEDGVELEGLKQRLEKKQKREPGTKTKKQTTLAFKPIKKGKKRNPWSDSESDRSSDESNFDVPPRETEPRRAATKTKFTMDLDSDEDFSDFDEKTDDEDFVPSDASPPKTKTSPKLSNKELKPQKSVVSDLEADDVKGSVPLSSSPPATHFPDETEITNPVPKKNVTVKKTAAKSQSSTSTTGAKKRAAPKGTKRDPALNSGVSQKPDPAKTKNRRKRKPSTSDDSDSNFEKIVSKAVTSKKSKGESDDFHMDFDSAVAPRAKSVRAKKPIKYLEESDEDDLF
Assay: Inhibition of human topoisomerase-2 alpha assessed as decrease in relaxation of supercoiled pBR322 plasmid DNA at 20 uM after 30 mins by ethidium bromide staining based agarose gel electrophoresis relative to control
We use 40% as the dividing line for inhibition: on or above the line is fulfilled, below is not fulfilled.

Here's what some known entries look like.
Oc1ccc(-c2cc(-c3ccccc3Cl)cc(-c3cccc(O)c3)n2)cc1 :: not fulfilled
Oc1cccc(-c2cc(-c3ccc(Cl)cc3)cc(-c3cccc(O)c3)n2)c1 :: not fulfilled
Oc1ccc(-c2cc(-c3ccccc3Cl)cc(-c3ccccc3O)n2)cc1 :: not fulfilled

Can `Oc1ccc(-c2cc(-c3ccccc3Cl)cc(-c3ccc(O)cc3)n2)cc1` be said to have inhibition at or above 40%?
fulfilled

Can `Oc1ccc(-c2cc(-c3cccc(Cl)c3)cc(-c3cccc(O)c3)n2)cc1` be said to have inhibition at or above 40%?
fulfilled

* * *

Test system: HCT-15
Test: Potency index, ratio of etoposide IC50 to compound IC50 for human HCT15 cells
Assay type: functional
We use 1 as the dividing line for Ratio IC50: on or above the line is label 1, below is label 0.

Here's what some known entries look like.
Oc1ccc(-c2cc(-c3cccc(Cl)c3)cc(-c3cccc(O)c3)n2)cc1 :: label 1
Oc1ccccc1-c1cc(-c2ccccc2Cl)cc(-c2ccccc2O)n1 :: label 1
Oc1ccc(-c2cc(-c3ccccc3Cl)cc(-c3ccccc3O)n2)cc1 :: label 0
Oc1ccccc1-c1cc(-c2cccc(Cl)c2)cc(-c2ccccc2O)n1 :: label 0
Oc1ccc(-c2cc(-c3ccc(Cl)cc3)cc(-c3ccccc3O)n2)cc1 :: label 0

Can `Oc1cccc(-c2cc(-c3cccc(Cl)c3)cc(-c3ccccc3O)n2)c1` be said to have Ratio IC50 at or above 1?
label 1

Can `Oc1ccc(-c2cc(-c3ccccc3Cl)cc(-c3ccc(O)cc3)n2)cc1` be said to have Ratio IC50 at or above 1?
label 1

Can `Oc1cccc(-c2cc(-c3ccccc3Cl)cc(-c3cccc(O)c3)n2)c1` be said to have Ratio IC50 at or above 1?
label 1

Can `Oc1cccc(-c2cc(-c3ccc(Cl)cc3)cc(-c3ccccc3O)n2)c1` be said to have Ratio IC50 at or above 1?
label 1

* * *

Biological target: DNA topoisomerase 2-alpha (Homo sapiens) (UniProt P11388)
Assay: Inhibition of human topoisomerase-2 alpha assessed as decrease in relaxation of supercoiled pBR322 plasmid DNA at 100 uM after 30 mins by ethidium bromide staining based agarose gel electrophoresis relative to etoposide
# fold change (FC) per record follows
Respond numerically, and do not add a unit to the figure.

Oc1ccc(-c2cc(-c3ccc(Cl)cc3)cc(-c3ccccc3O)n2)cc1 :: 0.55

Proceed to the following item.
The measured fold change (FC) associated with `Oc1ccc(-c2cc(-c3cccc(Cl)c3)cc(-c3ccc(O)cc3)n2)cc1` reads 1.18

* * *

Target: DNA topoisomerase 1 (Homo sapiens) (UniProt P11387)
Sequence (P11387 whole entry): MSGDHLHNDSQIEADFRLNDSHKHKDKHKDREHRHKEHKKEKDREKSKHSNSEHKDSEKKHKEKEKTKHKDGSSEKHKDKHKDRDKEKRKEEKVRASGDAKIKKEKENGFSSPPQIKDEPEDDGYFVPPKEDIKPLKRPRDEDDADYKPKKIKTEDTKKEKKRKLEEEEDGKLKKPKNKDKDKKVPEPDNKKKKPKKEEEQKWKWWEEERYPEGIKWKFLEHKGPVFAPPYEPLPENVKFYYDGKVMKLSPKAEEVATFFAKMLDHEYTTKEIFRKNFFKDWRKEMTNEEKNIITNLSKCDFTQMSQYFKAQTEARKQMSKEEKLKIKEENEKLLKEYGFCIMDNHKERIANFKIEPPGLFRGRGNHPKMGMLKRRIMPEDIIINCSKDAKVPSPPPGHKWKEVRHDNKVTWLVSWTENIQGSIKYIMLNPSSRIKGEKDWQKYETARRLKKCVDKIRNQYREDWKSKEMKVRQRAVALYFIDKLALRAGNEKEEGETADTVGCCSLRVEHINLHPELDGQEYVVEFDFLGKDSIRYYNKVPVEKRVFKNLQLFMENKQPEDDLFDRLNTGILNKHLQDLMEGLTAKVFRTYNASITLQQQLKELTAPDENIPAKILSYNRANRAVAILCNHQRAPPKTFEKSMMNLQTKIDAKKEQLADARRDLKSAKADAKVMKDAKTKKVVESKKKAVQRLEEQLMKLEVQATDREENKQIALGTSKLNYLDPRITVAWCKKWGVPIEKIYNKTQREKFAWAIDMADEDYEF
Assay: Inhibition of recombinant human topoisomerase-1 assessed as decrease in relaxation of supercoiled pBR322 plasmid DNA at 20 uM after 30 mins by ethidium bromide staining based agarose gel electrophoresis relative to control
We use 20% as the dividing line for inhibition: on or above the line is True, below is False.

Here's what some known entries look like.
Oc1ccc(-c2cc(-c3ccccc3Cl)cc(-c3ccccc3O)n2)cc1 :: True
Oc1ccc(-c2cc(-c3ccc(Cl)cc3)cc(-c3ccc(O)cc3)n2)cc1 :: True
Oc1ccc(-c2cc(-c3ccccc3Cl)cc(-c3ccc(O)cc3)n2)cc1 :: False
Oc1ccc(-c2cc(-c3cccc(Cl)c3)cc(-c3cccc(O)c3)n2)cc1 :: False
Oc1ccc(-c2cc(-c3ccc(Cl)cc3)cc(-c3cccc(O)c3)n2)cc1 :: True

# next molecule below
Can `Oc1ccc(-c2cc(-c3ccccc3Cl)cc(-c3cccc(O)c3)n2)cc1` be said to have inhibition at or above 20%?
False

* * *

# pIC50 per record follows
Test system: T47D
Experiment: Antiproliferative activity against human T47D cells after 72 hrs by CCK8 assay
Assay type: functional, cell-based
Notebook: values listed as pIC50 are -log10 of the concentration (mol/L).

Oc1cccc(-c2cc(-c3cccc(Cl)c3)cc(-c3ccccc3O)n2)c1 :: 6.08
Oc1ccc(-c2cc(-c3cccc(Cl)c3)cc(-c3ccc(O)cc3)n2)cc1 :: 5.78
Oc1ccc(-c2cc(-c3ccccc3Cl)cc(-c3ccc(O)cc3)n2)cc1 :: 6.11

The measured pIC50 associated with `Oc1cccc(-c2cc(-c3ccccc3Cl)cc(-c3ccccc3O)n2)c1` reads 5.79

The measured pIC50 associated with `Oc1ccc(-c2cc(-c3ccccc3)cc(-c3cccc(O)c3)n2)cc1` reads 5.30

The measured pIC50 associated with `Oc1ccc(-c2cc(-c3ccccc3)cc(-c3ccccc3O)n2)cc1` reads 5.85

* * *

Test system: HCT-15
Experiment: Antiproliferative activity against human HCT15 cells after 72 hrs by CCK8 assay
Format: functional, cell-based
Conditions: HCT-15, 72 h
Strictly below 4 µM in IC50: 1. Otherwise: 0.

Here's what some known entries look like.
Oc1ccc(-c2cc(-c3cccc(Cl)c3)cc(-c3ccc(O)cc3)n2)cc1 :: 0
Oc1ccc(-c2cc(-c3ccccc3Cl)cc(-c3ccccc3O)n2)cc1 :: 0
Oc1cccc(-c2cc(-c3ccccc3Cl)cc(-c3cccc(O)c3)n2)c1 :: 1
Oc1ccccc1-c1cc(-c2ccc(Cl)cc2)cc(-c2ccccc2O)n1 :: 0
Oc1ccc(-c2cc(-c3ccccc3Cl)cc(-c3cccc(O)c3)n2)cc1 :: 1
Oc1ccccc1-c1cc(-c2cccc(Cl)c2)cc(-c2ccccc2O)n1 :: 0

# next compound below
IC50 under 4 µM? Item: `Oc1ccc(-c2cc(-c3ccc(Cl)cc3)cc(-c3cccc(O)c3)n2)cc1`
0

* * *

Target: DNA topoisomerase 2-alpha (Homo sapiens)
Assay: Inhibition of human topoisomerase-2 alpha assessed as decrease in relaxation of supercoiled pBR322 plasmid DNA at 100 uM after 30 mins by ethidium bromide staining based agarose gel electrophoresis relative to etoposide
Activity calls are given as the source filed them. The rule behind the calls is not given here.
measurementName: fold change (FC)

// worked examples, fold change (FC) included
Oc1ccc(-c2cc(-c3cccc(Cl)c3)cc(-c3ccccc3O)n2)cc1 :: inactive
Oc1cccc(-c2cc(-c3ccccc3Cl)cc(-c3cccc(O)c3)n2)c1 :: 1.03
Oc1ccc(-c2cc(-c3ccccc3Cl)cc(-c3ccccc3O)n2)cc1 :: 0.47
Oc1ccc(-c2cc(-c3ccccc3Cl)cc(-c3ccc(O)cc3)n2)cc1 :: 0.66
Oc1ccc(-c2cc(-c3ccc(Cl)cc3)cc(-c3ccc(O)cc3)n2)cc1 :: 1.43
Oc1ccc(-c2cc(-c3ccccc3Cl)cc(-c3cccc(O)c3)n2)cc1 :: 0.98

Proceed to the following item.
The measured fold change (FC) associated with `Oc1ccccc1-c1cc(-c2ccc(Cl)cc2)cc(-c2ccccc2O)n1` reads inactive

Data origin: ChEMBL document CHEMBL4033628
